The entries below come with measured exon inclusion enrichment index values attached.
B1: mRNA-splicing (parent)
chain: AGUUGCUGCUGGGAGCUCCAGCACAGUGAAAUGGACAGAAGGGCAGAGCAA

# Variants of: B1
# testProtocol: exon inclusion enrichment index; higher = more inclusion; WT1 exon 5 minigene, HEK293
Note: the reply should be a number with no unit written.

// known answers, use as guide
mutantId: G5U G8U C9U U17C C18G
exon inclusion enrichment index: 0.151
//
mutantId: G5A C6G U7G C9A C22A A23U
exon inclusion enrichment index: 0.00131
//
mutantId: C6A U7A C9A U10A G33A
exon inclusion enrichment index: 0.0584
//
mutantId: G5A U7C G8A U10C G12U G13U
exon inclusion enrichment index: 0.053
//
mutantId: G5A U7C G8A U10C U17G C18U
exon inclusion enrichment index: 1.66
//
mutantId: G5C C6A U7C G8A U10A A30G A31G
exon inclusion enrichment index: 0.0207
//
mutantId: G5C C6U G8C C9U U10C G12C G13A
exon inclusion enrichment index: 0.931
//
mutantId: G5A C6U U7A G8U C9A C18G
exon inclusion enrichment index: 0.0618

Q. Supply recorded exon inclusion enrichment index for C19G A20G here.
A. 1.23

Q. Supply recorded exon inclusion enrichment index for C6A U7C C9A U10C A37G here.
A. 4.15

Q. Supply recorded exon inclusion enrichment index for G2A U3G G5A C6U U7A G8U C9A here.
A. 0.0498

Q. Supply recorded exon inclusion enrichment index for G2A C6A U7A C9A U10A here.
A. 0.929

Q. Supply recorded exon inclusion enrichment index for G5C C6A U7C G8A U10A A35C C36U here.
A. 0.0111

Q. Supply recorded exon inclusion enrichment index for C6A U7C C9A U10C A30C A31G here.
A. 3.94

Q. Supply recorded exon inclusion enrichment index for G5C C6U G8C C9U U10C G41A here.
A. 1.33
